# tgt: UniProtKB Q15910
pIC50: −log10 of the molar value.
Respond with yes (1) for pIC50 values of 6 and above, no (0) for values below.

molecule: Cc1cc(C)c(CNC(=O)c2cc(-c3ccc(CN4CCOCC4)cc3)cc3c2C(C)CN3C2CCOCC2)c(=O)[nH]1 (stereo in doubt; 34e2)
label-value: no (0)
//
molecule: Cc1cc(C)c(CNC(=O)c2cc(-c3ccc(CN4CCOCC4)cc3)cc3c2C(C)CN3C2CCCC2)c(=O)[nH]1 (stereo in doubt; 33e2)
label-value: yes (1)
//
molecule: Cc1cc(C)c(CNC(=O)c2cc(-c3cnc(N4CCNCC4)nc3)cc3c2C(C)CN3C2CCOCC2)c(=O)[nH]1 (stereo in doubt; 45e1)
label-value: yes (1)
//
molecule: Cc1cc(C)c(CNC(=O)c2cc(-c3ccc(CN4CCOCC4)cc3)cc3c2CCN3C2CCOCC2)c(=O)[nH]1
label-value: yes (1)
//
molecule: Cc1cc(C)c(CNC(=O)c2cc(-c3ccc(CN4CCOCC4)cc3)cc3c2C(C)CN3CC2CC2)c(=O)[nH]1 (stereo in doubt; 31e2)
label-value: no (0)
//
molecule: Cc1cc(C)c(CNC(=O)c2cc(-c3cnc(N4CCNCC4)c4ccccc34)cc3c2C(C)CN3C2CCOCC2)c(=O)[nH]1 (stereo in doubt; 36e2)
label-value: yes (1)
//
molecule: Cc1cc(C)c(CNC(=O)c2cc(-c3ccc(CN4CCOCC4)cc3)cc3c2C(C)CN3C(C)C)c(=O)[nH]1 (stereo in doubt; 30e2)
label-value: no (0)
//
molecule: Cc1cc(C)c(CNC(=O)c2cc(C#N)cc3c2C(C)CN3C(C)C)c(=O)[nH]1 (stereo in doubt; 27e2)
label-value: no (0)

* * *

# tgt: Histone-lysine N-methyltransferase EZH2 (Homo sapiens, UniProt Q15910, Y641F)
# Sequence (Q15910 whole entry Y641F): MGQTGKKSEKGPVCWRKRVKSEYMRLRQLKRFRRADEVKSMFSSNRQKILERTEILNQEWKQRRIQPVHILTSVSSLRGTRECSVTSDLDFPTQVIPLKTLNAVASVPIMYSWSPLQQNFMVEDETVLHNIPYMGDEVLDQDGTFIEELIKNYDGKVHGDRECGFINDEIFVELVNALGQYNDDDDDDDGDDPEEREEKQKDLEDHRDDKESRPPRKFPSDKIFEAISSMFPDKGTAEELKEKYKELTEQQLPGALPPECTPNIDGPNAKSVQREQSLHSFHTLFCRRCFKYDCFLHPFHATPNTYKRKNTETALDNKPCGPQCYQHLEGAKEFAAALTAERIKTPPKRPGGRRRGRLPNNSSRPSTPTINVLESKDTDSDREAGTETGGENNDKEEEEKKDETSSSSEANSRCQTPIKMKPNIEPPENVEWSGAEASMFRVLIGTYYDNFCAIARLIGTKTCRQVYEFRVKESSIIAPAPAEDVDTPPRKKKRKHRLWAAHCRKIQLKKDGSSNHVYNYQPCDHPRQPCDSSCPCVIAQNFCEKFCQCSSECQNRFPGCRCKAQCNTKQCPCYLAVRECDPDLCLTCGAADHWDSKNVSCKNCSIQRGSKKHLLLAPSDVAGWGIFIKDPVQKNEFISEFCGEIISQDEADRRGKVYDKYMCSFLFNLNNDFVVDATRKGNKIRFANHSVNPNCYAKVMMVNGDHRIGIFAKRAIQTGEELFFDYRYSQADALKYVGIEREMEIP
# assay-overview: Inhibition of human EZH2 Y641F mutant using histone H3 as substrate after 1 hr in presence of 3H-SAM by filter paper detection analysis
quantity: IC50 (nM)

compound: Cc1cc(C)c(CNC(=O)c2cc(C#N)cc3c2C(C)CN3C(C)C)c(=O)[nH]1 (stereo in doubt; 27e1)
tgt: Histone-lysine N-methyltransferase EZH2 (Homo sapiens, UniProt Q15910, Y641F)
endpoint-result: 478

compound: Cc1cc(C)c(CNC(=O)c2cc(-c3ccc(CN4CCOCC4)cc3)cc3c2C(C)CN3C2CCOCC2)c(=O)[nH]1 (stereo in doubt; 34e1)
tgt: Histone-lysine N-methyltransferase EZH2 (Homo sapiens, UniProt Q15910, Y641F)
endpoint-result: 975

compound: Cc1cc(C)c(CNC(=O)c2cc(-c3cnc(N4CCNCC4)c4ccccc34)cc3c2C(C)CN3C2CCOCC2)c(=O)[nH]1 (stereo in doubt; 36e1)
tgt: Histone-lysine N-methyltransferase EZH2 (Homo sapiens, UniProt Q15910, Y641F)
endpoint-result: 304

compound: Cc1cc(C)c(CNC(=O)c2cc(C#N)cc3c2C(C)CN3C2CCCC2)c(=O)[nH]1 (stereo in doubt; 28e1)
tgt: Histone-lysine N-methyltransferase EZH2 (Homo sapiens, UniProt Q15910, Y641F)
endpoint-result: 185

compound: Cc1cc(C)c(CNC(=O)c2cc(-c3ccc(CN4CCOCC4)cc3)cc3c2C(C)CN3C(C)C)c(=O)[nH]1 (stereo in doubt; 30e1)
tgt: Histone-lysine N-methyltransferase EZH2 (Homo sapiens, UniProt Q15910, Y641F)
endpoint-result: 518

compound: Cc1cc(C)c(CNC(=O)c2cc(-c3ccc(N4CCNCC4)nc3)cc3c2C(C)CN3C(C)C)c(=O)[nH]1 (stereo in doubt; 39e1)
tgt: Histone-lysine N-methyltransferase EZH2 (Homo sapiens, UniProt Q15910, Y641F)
endpoint-result: 622

compound: Cc1cc(C)c(CNC(=O)c2cc(-c3ccc(N4CCNCC4)nc3)cc3c2C(C)CN3C2CCCC2)c(=O)[nH]1 (stereo in doubt; 40e1)
tgt: Histone-lysine N-methyltransferase EZH2 (Homo sapiens, UniProt Q15910, Y641F)
endpoint-result: 505

compound: Cc1cc(C)c(CNC(=O)c2cc(-c3ccc(N4CCNCC4)nc3)cc3c2C(C)CN3C2CCOCC2)c(=O)[nH]1 (stereo in doubt; 41e1)
tgt: Histone-lysine N-methyltransferase EZH2 (Homo sapiens, UniProt Q15910, Y641F)
endpoint-result: 578

compound: Cc1cc(C)c(CNC(=O)c2cc(-c3ccc(CN4CCOCC4)cc3)cc3c2C(C)CN3C2CCCC2)c(=O)[nH]1 (stereo in doubt; 33e1)
tgt: Histone-lysine N-methyltransferase EZH2 (Homo sapiens, UniProt Q15910, Y641F)
endpoint-result: 902

* * *

# tgt: Histone-lysine N-methyltransferase EZH1 (Homo sapiens, UniProt Q92800)
# Sequence (Q92800 whole entry): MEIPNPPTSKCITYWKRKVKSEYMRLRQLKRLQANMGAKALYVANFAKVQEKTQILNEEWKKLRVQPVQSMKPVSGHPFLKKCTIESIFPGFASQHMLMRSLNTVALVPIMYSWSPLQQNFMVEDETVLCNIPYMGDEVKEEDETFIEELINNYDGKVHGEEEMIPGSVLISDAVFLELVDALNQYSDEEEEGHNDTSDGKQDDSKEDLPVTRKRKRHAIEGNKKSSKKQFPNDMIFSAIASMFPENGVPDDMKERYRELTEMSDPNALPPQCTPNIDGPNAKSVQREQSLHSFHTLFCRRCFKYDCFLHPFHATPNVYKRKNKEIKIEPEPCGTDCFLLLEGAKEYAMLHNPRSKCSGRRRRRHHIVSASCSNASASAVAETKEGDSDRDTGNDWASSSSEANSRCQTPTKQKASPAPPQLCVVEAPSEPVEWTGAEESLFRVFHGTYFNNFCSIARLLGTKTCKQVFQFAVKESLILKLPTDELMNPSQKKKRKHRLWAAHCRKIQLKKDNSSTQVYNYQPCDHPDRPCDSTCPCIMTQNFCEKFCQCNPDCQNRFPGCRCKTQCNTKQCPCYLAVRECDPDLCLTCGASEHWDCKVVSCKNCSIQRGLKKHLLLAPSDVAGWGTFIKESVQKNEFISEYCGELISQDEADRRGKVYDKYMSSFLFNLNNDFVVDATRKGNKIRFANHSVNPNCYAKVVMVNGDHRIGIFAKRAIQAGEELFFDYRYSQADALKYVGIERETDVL
# assay-overview: Inhibition of human EZH1 complex using histone H3 as substrate after 1 hr in presence of 3H-SAM by filter paper detection analysis

compound: Cc1cc(C)c(CNC(=O)c2cc(-c3cnc(N4CCNCC4)c4ccccc34)cc3c2C(C)CN3C2CCOCC2)c(=O)[nH]1 (stereo in doubt; 36e1)
units-text: µM
IC50: 1.56
--
compound: Cc1cc(C)c(CNC(=O)c2cc(C#N)cc3c2C(C)CN3C2CCCC2)c(=O)[nH]1 (stereo in doubt; 28e1)
units-text: µM
IC50: 4.44
--
compound: Cc1cc(C)c(CNC(=O)c2cc(-c3ccc(N4CCNCC4)nc3)cc3c2C(C)CN3C2CCCC2)c(=O)[nH]1 (stereo in doubt; 40e1)
units-text: µM
IC50: 1.35

* * *

Listed below: remaining at 0.5 h, 1 µM values for each entry.
# assay-overview: Oxidative metabolic stability in human liver microsomes assessed as amount of parent compound remaining at 1 uM after 30 mins by LC-MS/MS
# Format: ADME
# condition-info: read-out: Stability
quantity: remaining at 0.5 h, 1 µM (%)

compound: Cc1cc(C)c(CNC(=O)c2cc(-c3ccc(CN4CCOCC4)cc3)cc3c2C(C)CN3C2CCOCC2)c(=O)[nH]1 (stereo in doubt; 34e1)
endpoint-result: 62

compound: CCN(c1cc(-c2ccc(CN3CCOCC3)cc2)cc(C(=O)NCc2c(C)cc(C)[nH]c2=O)c1C)C1CCOCC1 [TAZEMETOSTAT]
endpoint-result: 25

compound: Cc1cc(C)c(CNC(=O)c2cc(-c3ccc(N4CCNCC4)nc3)cc3c2C(C)CN3C2CCOCC2)c(=O)[nH]1 (stereo in doubt; 41e1)
endpoint-result: 83

* * *

# collection of pIC50 values tested on Histone-lysine N-methyltransferase EZH2 (Homo sapiens, UniProt Q15910)
# Sequence (Q15910 whole entry): as the sequence (Q15910 whole entry Y641F) above, with F641Y counted along it
pIC50: −log10 of the molar value.
quantity: pIC50

compound: Cc1cc(C)c(CNC(=O)c2cc(-c3ccc(N4CCNCC4)nc3)cc3c2C(C)CN3C(C)C)c(=O)[nH]1 (stereo in doubt; 39e2)
qual: =
endpoint-result: 5.97
//
compound: Cc1cc(C)c(CNC(=O)c2cc(C#N)cc3c2C(C)CN3C2CCCC2)c(=O)[nH]1 (stereo in doubt; 28e2)
qual: <
endpoint-result: 4.00
//
compound: Cc1cc(C)c(CNC(=O)c2cc(C#N)cc3c2C(C)CN3C(C)C)c(=O)[nH]1 (stereo in doubt; 27e1)
qual: =
endpoint-result: 7.06
//
compound: Cc1cc(C)c(CNC(=O)c2cc(-c3ccc(N4CCNCC4)nc3)cc3c2C(C)CN3C2CCOCC2)c(=O)[nH]1 (stereo in doubt; 41e1)
qual: =
endpoint-result: 7.96
//
compound: Cc1cc(C)c(CNC(=O)c2cc(-c3ccc(CN4CCOCC4)cc3)cc3c2C(C)CN3C2CCCC2)c(=O)[nH]1 (stereo in doubt; 33e1)
qual: =
endpoint-result: 7.62
//
compound: Cc1cc(C)c(CNC(=O)c2cc(C#N)cc3c2CCN3C2CCCC2)c(=O)[nH]1
qual: =
endpoint-result: 6.24
//
compound: Cc1cc(C)c(CNC(=O)c2cc(-c3ccc(N4CCNCC4)nc3)cc3c2C(C)CN3C2CCOCC2)c(=O)[nH]1 (stereo in doubt; 41e2)
qual: =
endpoint-result: 5.67

* * *

Listed below: pIC50 values for each entry.
# tgt: Histone-lysine N-methyltransferase EZH1 (Homo sapiens)
# assay-overview: Inhibition of human EZH1 complex using histone H3 as substrate after 1 hr in presence of 3H-SAM by filter paper detection analysis
pIC50: −log10 of the molar value.

molecule: Cc1cc(C)c(CNC(=O)c2cc(C#N)cc3c2C(C)CN3C(C)C)c(=O)[nH]1 (stereo in doubt; 27e1)
tgt: Histone-lysine N-methyltransferase EZH1 (Homo sapiens)
pIC50: 5.11
//
molecule: Cc1cc(C)c(CNC(=O)c2cc(-c3ccc(N4CCNCC4)nc3)cc3c2C(C)CN3C2CCOCC2)c(=O)[nH]1 (stereo in doubt; 41e1)
tgt: Histone-lysine N-methyltransferase EZH1 (Homo sapiens)
pIC50: 5.70
//
molecule: Cc1cc(C)c(CNC(=O)c2cc(-c3ccc(CN4CCOCC4)cc3)cc3c2C(C)CN3C2CCOCC2)c(=O)[nH]1 (stereo in doubt; 34e1)
tgt: Histone-lysine N-methyltransferase EZH1 (Homo sapiens)
pIC50: 5.48
//
molecule: Cc1cc(C)c(CNC(=O)c2cc(-c3ccc(CN4CCOCC4)cc3)cc3c2C(C)CN3C2CCCC2)c(=O)[nH]1 (stereo in doubt; 33e1)
tgt: Histone-lysine N-methyltransferase EZH1 (Homo sapiens)
pIC50: 5.58
//
molecule: Cc1cc(C)c(CNC(=O)c2cc(-c3ccc(N4CCNCC4)nc3)cc3c2C(C)CN3C(C)C)c(=O)[nH]1 (stereo in doubt; 39e1)
tgt: Histone-lysine N-methyltransferase EZH1 (Homo sapiens)
pIC50: 5.73
//
molecule: Cc1cc(C)c(CNC(=O)c2cc(-c3ccc(CN4CCOCC4)cc3)cc3c2C(C)CN3C(C)C)c(=O)[nH]1 (stereo in doubt; 30e1)
tgt: Histone-lysine N-methyltransferase EZH1 (Homo sapiens)
pIC50: 5.57
